From: patent US9938261B2

- measured on: FLT3 (Homo sapiens)
- Construct: made in house
- Sequence (P36888 27-993): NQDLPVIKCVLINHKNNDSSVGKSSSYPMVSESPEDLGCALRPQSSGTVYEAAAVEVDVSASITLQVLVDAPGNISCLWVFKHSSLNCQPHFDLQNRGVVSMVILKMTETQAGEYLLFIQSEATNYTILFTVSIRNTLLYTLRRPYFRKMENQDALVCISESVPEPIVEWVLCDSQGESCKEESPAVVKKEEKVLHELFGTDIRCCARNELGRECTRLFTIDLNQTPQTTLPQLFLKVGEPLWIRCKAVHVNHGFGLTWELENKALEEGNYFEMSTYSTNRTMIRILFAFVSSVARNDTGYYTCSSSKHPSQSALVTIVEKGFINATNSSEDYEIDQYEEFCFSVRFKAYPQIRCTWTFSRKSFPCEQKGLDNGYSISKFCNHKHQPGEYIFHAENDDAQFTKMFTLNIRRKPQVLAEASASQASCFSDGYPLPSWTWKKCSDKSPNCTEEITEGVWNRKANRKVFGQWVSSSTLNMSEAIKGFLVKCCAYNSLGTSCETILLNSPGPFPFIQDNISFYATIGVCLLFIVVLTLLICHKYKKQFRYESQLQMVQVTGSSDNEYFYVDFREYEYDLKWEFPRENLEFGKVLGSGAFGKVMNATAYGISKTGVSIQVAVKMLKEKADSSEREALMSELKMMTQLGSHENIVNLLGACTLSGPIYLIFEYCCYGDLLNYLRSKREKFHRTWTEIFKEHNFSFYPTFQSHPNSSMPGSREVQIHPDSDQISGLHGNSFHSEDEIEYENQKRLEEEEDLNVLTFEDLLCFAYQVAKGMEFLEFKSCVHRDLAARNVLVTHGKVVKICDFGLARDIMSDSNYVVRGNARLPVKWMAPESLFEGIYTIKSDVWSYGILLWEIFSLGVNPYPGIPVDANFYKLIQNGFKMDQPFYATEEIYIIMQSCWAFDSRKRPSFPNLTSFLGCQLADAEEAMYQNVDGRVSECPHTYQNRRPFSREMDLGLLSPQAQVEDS
- assay procedure: Competition binding assay, FLT3 Kd
pKd: −log10 of the molar value.
reported endpoint: pKd

>  <given smiles>
CC(=O)c1cnc2c(c1)ncn2Cc1ccc2nc(N[C@@H]3CCCC[C@H]3O)sc2c1

>  <result>
5.30 to 6.00

$$$$
>  <given smiles>
COc1cc2c(cc1-c1cnn(C)c1)ncn2Cc1ccc2nc(N[C@@H]3CCCC[C@H]3O)sc2c1

>  <result>
≥ 6.70

$$$$
>  <given smiles>
N=C(NO)c1cnc2c(c1)ncn2Cc1ccc2nc(N[C@@H]3CCCC[C@H]3O)sc2c1

>  <result>
5.30 to 6.00

$$$$

Now look at this one.
[Q] Sample `O[C@@H]1Cc2ccccc2[C@H]1Nc1nc2ccc(Cn3cnc4cc(Br)cnc43)cc2o1` — what was its pKd?
[A] 6.00 to 6.70

* * *

In this section, each of the compounds is paired with its reported pIC50.
- measured on: CSF1R (Homo sapiens, UniProt P07333)
- Sequence (P07333 20-972): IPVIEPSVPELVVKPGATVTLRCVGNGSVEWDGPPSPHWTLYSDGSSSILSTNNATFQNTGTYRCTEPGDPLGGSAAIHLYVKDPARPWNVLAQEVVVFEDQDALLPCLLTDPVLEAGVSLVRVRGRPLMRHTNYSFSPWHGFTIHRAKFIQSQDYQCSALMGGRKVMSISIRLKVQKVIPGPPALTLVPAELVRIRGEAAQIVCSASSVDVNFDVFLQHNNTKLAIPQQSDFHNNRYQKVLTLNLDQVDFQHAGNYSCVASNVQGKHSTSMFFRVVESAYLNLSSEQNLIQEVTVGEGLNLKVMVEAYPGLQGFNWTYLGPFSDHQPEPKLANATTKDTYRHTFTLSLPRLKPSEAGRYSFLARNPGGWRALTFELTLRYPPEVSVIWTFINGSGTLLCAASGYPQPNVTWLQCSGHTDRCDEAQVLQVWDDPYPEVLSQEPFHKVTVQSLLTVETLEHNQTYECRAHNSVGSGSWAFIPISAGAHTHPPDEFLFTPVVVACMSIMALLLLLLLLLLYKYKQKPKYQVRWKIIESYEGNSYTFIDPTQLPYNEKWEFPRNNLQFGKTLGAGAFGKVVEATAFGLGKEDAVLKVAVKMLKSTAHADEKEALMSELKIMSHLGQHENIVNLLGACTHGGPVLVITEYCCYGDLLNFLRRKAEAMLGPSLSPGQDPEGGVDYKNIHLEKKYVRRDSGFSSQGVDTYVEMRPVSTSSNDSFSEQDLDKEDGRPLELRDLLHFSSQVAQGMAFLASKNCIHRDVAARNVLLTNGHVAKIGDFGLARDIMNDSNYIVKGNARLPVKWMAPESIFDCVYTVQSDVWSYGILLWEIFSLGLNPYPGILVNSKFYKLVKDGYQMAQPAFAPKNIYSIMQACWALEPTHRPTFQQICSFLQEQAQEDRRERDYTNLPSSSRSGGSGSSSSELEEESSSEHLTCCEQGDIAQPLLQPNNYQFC
- assay procedure: HEK293 CSF1R phosphorylation MSD assay
- Assay type: cell-based
- Set-up: expressed in transfected cells; host or cells: HEK293
- test settings: HEK293 cells, M-CSF stimulated CSF1R phosphorylation, MSD; read-out: HEK293 pCSF1R M-CSF MSD:IC50
pIC50: −log10 of the molar value.

>  <compound>
OCCOc1ccc2c(c1)ncn2Cc1ccc2nc(N[C@@H]3CCCC[C@H]3O)sc2c1

>  <result>
≥ 7.30

$$$$
>  <compound>
O[C@@H]1CCCC[C@H]1Nc1nc2ccc(Cn3cnc4cc(C5=CCOCC5)cc(F)c43)cc2s1

>  <result>
6.70 to 7.30

$$$$
>  <compound>
O[C@@H]1CCCC[C@H]1Nc1nc2ccc(Cc3cnc4cccnn34)cc2s1

>  <result>
≥ 7.30

$$$$
>  <compound>
O[C@H]1CCCCC1Nc1nc2ccc(Cn3cnc4cc(F)cnc43)cc2s1 (stereo in doubt)

>  <result>
6.70 to 7.30

$$$$
>  <compound>
OC[C@H]1CC[C@@H](Nc2nc3ccc(Cn4cnc5cc(F)cnc54)cc3s2)CC1

>  <result>
< 6.30

$$$$
>  <compound>
O[C@@H]1CCCC[C@H]1Nc1nc2ncc(Cn3cnc4cccnc43)cc2s1

>  <result>
6.70 to 7.30

$$$$
>  <compound>
C#Cc1ccc2ncn(Cc3ccc4nc(N[C@@H]5CCCC[C@H]5O)sc4c3)c2c1

>  <result>
6.70 to 7.30

$$$$

[Q] Sample `OC[C@H]1CC[C@H](Nc2nc3ccc(Cn4cnc5cc(F)cnc54)cc3s2)CC1` — what was its pIC50?
[A] 6.30 to 6.70

* * *

- measured on: CSF1R (Homo sapiens, UniProt P07333)
- assay procedure: Competition binding assay, CSF1R Kd
- Set-up: made in house
- test settings: competition binding
reported endpoint: Kd

// worked examples, Kd included
>  <given smiles>
O[C@@H]1CCCC[C@H]1Nc1nc2ccc(Cn3cnc4cc(Cl)c(Cl)nc43)cc2s1

>  <Kd>
≤ 5 nM

$$$$
>  <given smiles>
N#Cc1cc2ncn(Cc3ccc4nc(N[C@@H]5CCCC[C@H]5O)sc4c3)c2nc1C#N

>  <Kd>
20 to 50 nM

$$$$
>  <given smiles>
CCOc1ccc2c(c1)ncn2Cc1ccc2nc(N[C@@H]3CCCC[C@H]3O)sc2c1

>  <Kd>
≤ 5 nM

$$$$
>  <given smiles>
N#Cc1ccn2c(Cc3ccc4nc(N[C@@H]5CCCC[C@H]5O)sc4c3)cnc2c1

>  <Kd>
5 to 20 nM

$$$$
>  <given smiles>
Fc1cnc2c(c1)ncn2Cc1ccc2nc(N[C@@H]3CCCC[C@@H]3Cl)sc2c1

>  <Kd>
5 to 20 nM

$$$$
>  <given smiles>
O=C1CCCCN1c1ccc2c(c1)ncn2Cc1ccc2nc(N[C@@H]3CCCC[C@H]3O)sc2c1

>  <Kd>
20 to 50 nM

$$$$
>  <given smiles>
O[C@@H]1CCCC[C@H]1Nc1nc2ccc(Cc3cnc4ccc(Br)nn34)cc2s1

>  <Kd>
≤ 5 nM

$$$$
>  <given smiles>
O[C@@H]1CCCC[C@H]1Nc1nc2ccc(Cn3cnc4cc(-n5ccnc5)ccc43)cc2s1

>  <Kd>
≤ 5 nM

$$$$

Now look at this one.
[Q] Sample `O[C@@H]1[C@H](O)CCC[C@H]1Nc1nc2ccc(Cn3cnc4cc(-n5cncn5)cnc43)cc2s1` — what was its Kd?
[A] 5 to 20 nM
